Molecular target: human GPBAR1 receptor (Homo sapiens (Human), UniProt Q8TDU6)
Sequence (Q8TDU6 whole entry): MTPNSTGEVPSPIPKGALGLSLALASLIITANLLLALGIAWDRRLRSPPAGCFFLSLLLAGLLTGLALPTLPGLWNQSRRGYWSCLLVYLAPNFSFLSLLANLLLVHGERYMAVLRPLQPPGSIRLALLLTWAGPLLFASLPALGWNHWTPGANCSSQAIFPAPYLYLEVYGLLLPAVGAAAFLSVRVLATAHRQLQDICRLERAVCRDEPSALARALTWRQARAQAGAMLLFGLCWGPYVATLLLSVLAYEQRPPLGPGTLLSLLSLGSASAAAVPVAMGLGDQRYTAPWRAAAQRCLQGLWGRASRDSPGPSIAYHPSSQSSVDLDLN
Assay: functional cAMP assay in CHO-dhfr(minus) cells expressing human GPBAR1 receptors
Details: CHO-dhfr(minus) cells expressing human GPBAR1, 30 min at 30° C.
Listed compounds paired with reported EC50
REPORTED_METRIC: EC50 (nM)

- COMPOUND: "COc1ncc(F)cc1-c1ccncc1N(C)C(=O)c1cc(C(F)(F)F)cc(C(F)(F)F)c1"
  MEASUREMENT_UNIT: "nM"
  EXPERIMENTAL_RESULT: 30
- COMPOUND: "Cc1ccccc1-c1ccncc1N(C)C(=O)c1cc(F)cc(Cl)c1"
  MEASUREMENT_UNIT: "nM"
  EXPERIMENTAL_RESULT: 329
- COMPOUND: "Cc1ccccc1-c1ccncc1N(CC(F)(F)F)C(=O)c1cc(C(F)(F)F)nc(C(F)(F)F)c1"
  MEASUREMENT_UNIT: "nM"
  EXPERIMENTAL_RESULT: 90
- COMPOUND: "CCC(=O)CN(C(=O)c1cc(C(F)(F)F)nc(C(F)(F)F)c1)c1cnccc1-c1ccc(F)cc1OC"
  MEASUREMENT_UNIT: "nM"
  EXPERIMENTAL_RESULT: 54
- COMPOUND: "COc1ncc(Cl)cc1-c1ccncc1N(C)C(=O)c1cc(C(F)(F)F)cc(C(F)(F)F)c1"
  MEASUREMENT_UNIT: "nM"
  EXPERIMENTAL_RESULT: 302
- COMPOUND: "Cc1ccc(Cl)cc1-c1ccncc1N(C)C(=O)c1cc(C(F)(F)F)cc(C(F)(F)F)c1"
  MEASUREMENT_UNIT: "nM"
  EXPERIMENTAL_RESULT: 234
- COMPOUND: "O=C(c1cc(C(F)(F)F)cc(C(F)(F)F)c1)N(c1cnccc1-c1ccccc1Cl)C1CC1"
  MEASUREMENT_UNIT: "nM"
  EXPERIMENTAL_RESULT: 1980
- COMPOUND: "COc1cc(F)ccc1-c1ccncc1N(CC1CCCCO1)C(=O)c1cc(C(F)(F)F)cc(S(C)(=O)=O)c1 (single isomer, unassigned; (+)) [Example 291]"
  MEASUREMENT_UNIT: "nM"
  EXPERIMENTAL_RESULT: 2840
- COMPOUND: "COc1cc(F)ccc1-c1ccncc1N(C)C(=O)c1cc(C(F)(F)F)cc(S(=O)(=O)CCCC(=O)O)c1"
  MEASUREMENT_UNIT: "nM"
  EXPERIMENTAL_RESULT: 413
- COMPOUND: "CC(C)Oc1ncccc1-c1ccncc1N(C)C(=O)c1cc(C(F)(F)F)cc(C(F)(F)F)c1"
  MEASUREMENT_UNIT: "nM"
  EXPERIMENTAL_RESULT: 924
- COMPOUND: "Cc1ccccc1-c1ccncc1N(CC(F)F)C(=O)c1cc(C(F)(F)F)nc(C(F)(F)F)c1"
  MEASUREMENT_UNIT: "nM"
  EXPERIMENTAL_RESULT: 88
- COMPOUND: "COc1cc(F)ccc1-c1ccncc1N(C)C(=O)c1cc(Br)cc(OC(F)(F)F)c1"
  MEASUREMENT_UNIT: "nM"
  EXPERIMENTAL_RESULT: 168
- COMPOUND: "COc1cc(F)ccc1-c1ccncc1N(Cc1cc(C)on1)C(=O)c1cc(C(F)(F)F)cc(S(C)(=O)=O)c1"
  MEASUREMENT_UNIT: "nM"
  EXPERIMENTAL_RESULT: 3500
- COMPOUND: "COc1ncccc1-c1ccncc1N(CC(F)(F)F)C(=O)c1cc(C(F)(F)F)nc(C(F)(F)F)c1"
  MEASUREMENT_UNIT: "nM"
  EXPERIMENTAL_RESULT: 30
- COMPOUND: "COC(=O)CN(C(=O)c1cc(C(F)(F)F)nc(C(F)(F)F)c1)c1cnccc1-c1ccccc1F"
  MEASUREMENT_UNIT: "nM"
  EXPERIMENTAL_RESULT: 23
